# Tested on: Escherichia coli TOP10;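 note: peptides expressed intracellularly from a pBAD plasmid library in pooled LB shake-flask culture, induced with 0.3% L-arabinose, DNA abundance read by NGS, three biological replicates, DESeq2 with apeglm shrinkage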
# measurement_notes: shrunken log2 fold change of peptide-encoding DNA abundance (4.5 h post-induction vs induction); higher = less antimicrobial activity (less host growth inhibition)
# conditions_used: time post-induction: 4.5 h; library: site-saturation at positions 5, 18, 19, 20
Can you tell me shrunken log2 fold change for the items I'm about to list?

Exam item: Query for Escherichia coli TOP10: what shrunken log2 fold change does the record show for RRIRRRPPRLPRPRPRPVKFPRP ?
Marked response: 0.0517

Exam item: Query for Escherichia coli TOP10: what shrunken log2 fold change does the record show for RRIRCRPPRLPRPRPRPDKNPRP ?
Marked response: -0.369

Exam item: Query for Escherichia coli TOP10: what shrunken log2 fold change does the record show for RRIRIRPPRLPRPRPRPETVPRP ?
Marked response: -0.344

Exam item: Query for Escherichia coli TOP10: what shrunken log2 fold change does the record show for RRIRWRPPRLPRPRPRPWGKPRP ?
Marked response: 0.0784

Exam item: Query for Escherichia coli TOP10: what shrunken log2 fold change does the record show for RRIRARPPRLPRPRPRPYGTPRP ?
Marked response: -0.131

Exam item: Query for Escherichia coli TOP10: what shrunken log2 fold change does the record show for RRIRVRPPRLPRPRPRPPQNPRP ?
Marked response: 0.188

Exam item: Query for Escherichia coli TOP10: what shrunken log2 fold change does the record show for RRIRWRPPRLPRPRPRPAFPPRP ?
Marked response: 0.446

Exam item: Query for Escherichia coli TOP10: what shrunken log2 fold change does the record show for RRIRYRPPRLPRPRPRPIPFPRP ?
Marked response: -1.53

Exam item: Query for Escherichia coli TOP10: what shrunken log2 fold change does the record show for RRIRCRPPRLPRPRPRPTATPRP ?
Marked response: 0.299

Exam item: Query for Escherichia coli TOP10: what shrunken log2 fold change does the record show for RRIRDRPPRLPRPRPRPGMVPRP ?
Marked response: 0.548

Exam item: Query for Escherichia coli TOP10: what shrunken log2 fold change does the record show for RRIRMRPPRLPRPRPRPYVDPRP ?
Marked response: -0.249

Exam item: Query for Escherichia coli TOP10: what shrunken log2 fold change does the record show for RRIRDRPPRLPRPRPRPDGVPRP ?
Marked response: -0.0199

Exam item: Query for Escherichia coli TOP10: what shrunken log2 fold change does the record show for RRIRKRPPRLPRPRPRPLKSPRP ?
Marked response: 0.713

Exam item: Query for Escherichia coli TOP10: what shrunken log2 fold change does the record show for RRIRMRPPRLPRPRPRPKNHPRP ?
Marked response: 0.412

Exam item: Query for Escherichia coli TOP10: what shrunken log2 fold change does the record show for RRIRRRPPRLPRPRPRPWHDPRP ?
Marked response: 0.0389
